Values from paper PMC5933457

Biological target: RARγ ligand-binding domain (GST-RAR-γ-LBD) (Homo sapiens, UniProt P13631)
Construct: purchased Invitrogen
Sequence (P13631 185-419 limits assumed): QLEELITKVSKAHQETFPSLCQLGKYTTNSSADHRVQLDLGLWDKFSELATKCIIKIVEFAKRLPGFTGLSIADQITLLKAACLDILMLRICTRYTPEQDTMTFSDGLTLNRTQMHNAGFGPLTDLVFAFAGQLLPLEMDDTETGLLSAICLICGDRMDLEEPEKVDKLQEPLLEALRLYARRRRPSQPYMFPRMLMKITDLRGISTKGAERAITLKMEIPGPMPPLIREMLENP
Experiment: LanthaScreen TR-FRET RARγ co-activator (receptor binding) assay
Assay type: biochemical
Conditions: in words, Fig. 6C
READOUT_TYPE: binding-curve upper asymptote (coactivator recruitment), RARγ

[
  {
    "MOLECULAR_STRING": "Cc1sc(-c2ccc(C(=O)O)cc2)nc1-c1ccccc1",
    "ENDPOINT_RESULT": "intermediate"
  },
  {
    "MOLECULAR_STRING": "CCOC(=O)c1ccc(-c2nc(-c3ccc4c(c3)C(C)(C)CCC4(C)C)c(C)s2)cc1",
    "ENDPOINT_RESULT": "intermediate"
  },
  {
    "MOLECULAR_STRING": "Cc1sc(-c2ccc(C(=O)O)cc2)nc1-c1ccc2c(c1)C(C)(C)CCC2(C)C",
    "ENDPOINT_RESULT": "high"
  }
]
